Where these numbers come from: patent US9586962B2

biological target: human orexin 2 receptor (Homo sapiens (Human), UniProt O43614)
Sequence (O43614 whole entry): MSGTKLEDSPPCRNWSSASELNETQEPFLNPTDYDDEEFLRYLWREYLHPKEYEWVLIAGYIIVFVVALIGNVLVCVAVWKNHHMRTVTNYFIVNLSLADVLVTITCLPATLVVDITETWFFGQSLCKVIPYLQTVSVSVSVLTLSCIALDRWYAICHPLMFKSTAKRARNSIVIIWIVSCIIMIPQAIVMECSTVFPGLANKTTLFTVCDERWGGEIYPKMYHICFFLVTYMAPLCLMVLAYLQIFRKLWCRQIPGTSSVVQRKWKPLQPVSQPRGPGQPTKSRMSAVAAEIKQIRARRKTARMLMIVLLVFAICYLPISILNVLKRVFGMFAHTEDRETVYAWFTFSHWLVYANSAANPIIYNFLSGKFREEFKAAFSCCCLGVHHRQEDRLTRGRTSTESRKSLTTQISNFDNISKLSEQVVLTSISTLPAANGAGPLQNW
pKi: −log10 of the molar value.
measuredEndpoint: pKi

Look over these answered cases.
>>> recordedresult("Cc1cc(C)nc(N2CC3CN(C(=O)c4nc(C)ccc4-c4ncc(C)o4)CC3C2)n1 (stereo not shown)")
5.98
>>> recordedresult("CCOc1ncccc1C(=O)N1CC2CN(c3cnc4cc(F)c(F)cc4n3)CC2C1 (stereo not shown)")
6.24
>>> recordedresult("Cc1nc(N(C)C)cc(N2CC3CN(C(=O)c4cc(F)ccc4-c4ncccn4)CC3C2)n1 (stereo not shown)")
7.07
>>> recordedresult("CCOc1ncccc1C(=O)N1CC2CN(c3ncc4cc(F)ccc4n3)CC2C1 (stereo not shown)")
6.47
>>> recordedresult("O=C(c1cccc(F)c1-c1cscn1)N1CC2CN(c3cnc4cc(F)c(F)cc4n3)CC2C1 (stereo not shown)")
7.49
>>> recordedresult("O=C(c1cccc(F)c1-c1ccccn1)N1CC2CN(c3cnc4cc(F)c(F)cc4n3)CC2C1 (stereo not shown)")
7.59
>>> recordedresult("Cc1noc(-c2c(F)cccc2C(=O)N2CC3CN(c4ncc(F)c(C)n4)CC3C2)n1 (stereo not shown)")
7.19
>>> recordedresult("Cc1cc(C)nc(N2CC3CN(C(=O)c4c(F)cccc4-c4nnc[nH]4)CC3C2)n1 (stereo not shown)")
6.57

(1) COc1ccc(C(=O)N2CC3CN(c4cnc5cc(F)c(F)cc5n4)CC3C2)c(-c2ncccn2)c1 (stereo not shown)
(2) CCCOc1ccc(C)cc1C(=O)N1CC2CN(c3cc(N(C)C)nc(C)n3)CC2C1 (stereo not shown)
Pick one, 1 or 2 : lowest reported pKi. Your choice should be expressed through its label. 2
(2: 6.57, 1: 7.42)

(1) Cc1cc(C)nc(N2CC3CN(C(=O)c4cccc(F)c4-c4nnc[nH]4)CC3C2)n1 (stereo not shown)
(2) Cc1cc(C)nc(N2CC3CN(C(=O)c4ccc(OC(F)F)cc4-n4nccn4)CC3C2)n1 (stereo not shown)
(3) CCCOc1ccc(C)nc1C(=O)N1CC2CN(c3nc(C)cc(C)n3)CC2C1 (stereo not shown)
List the 3 entries from lowest pKi to highest pKi value. Lab note: final answer is the ordered label list. 3, 2, 1

(P) Cc1cc(C)nc(N2CC3CN(C(=O)c4c(F)cccc4-c4cncs4)CC3C2)n1 (stereo not shown)
(Q) COc1cccc(-n2nccn2)c1C(=O)N1CC2CN(c3nc(C)cc(C)n3)CC2C1 (stereo not shown)
Pick one, P or Q : lowest reported pKi. Your choice should be expressed through its label. P

(a) Cc1nc(N(C)C)cc(N2CC3CN(C(=O)c4cccc(F)c4-c4ncccn4)CC3C2)n1 (stereo not shown)
(b) Cc1cc(CO)nc(N2CC3CN(C(=O)c4cccc(F)c4-c4nc(C)no4)CC3C2)n1 (stereo not shown)
(c) Cc1cc(C)nc(N2CC3CN(C(=O)c4c(F)cccc4-c4ccc(Cl)cn4)CC3C2)n1 (stereo not shown)
(d) Cc1cc(C)nc(N2CC3CN(C(=O)c4ccccc4-c4cn(Cc5ccccc5)nn4)CC3C2)n1 (stereo not shown)
Order the items by recorded pKi; the first position goes to the largest value. Lab note: final answer is the ordered label list. b, a, c, d
